assay_text: Inhibition of horseradish peroxidase catalytic activity by luminol-enhanced chemiluminescence assay
Parameters: species or system Armoracia rusticana
pIC50: −log10 of the molar value.
assay_readout: pIC50

Some compounds with recorded pIC50:
{"entry_smiles": "O=c1oc2ccc(O)cc2cc1-c1ccccc1O", "pIC50": 4.61}
{"entry_smiles": "O=c1oc2cc(O)c(O)cc2cc1-c1ccc2c(c1)OCO2", "pIC50": 5.47}

I. O=c1oc2ccc(O)cc2cc1-c1ccc(O)c(O)c1
II. CC(=O)Oc1ccc(-c2cc3cc(OC(C)=O)c(OC(C)=O)cc3oc2=O)cc1OC(C)=O
III. O=c1oc2cc(O)c(O)cc2cc1-c1ccc(O)c(O)c1
Task: Order the items by recorded pIC50; the first position goes to the largest value. Could you list the labels in the order requested?
Output: III, I, II
